All figures here come from BigSolDB 2.1.

- condition: in DMSO, 300.65 K
measurementLabel: solubility (mole fraction)
One number for each entry.

Record c1ccc(-c2nnn[nH]2)cc1 , field solubility (mole fraction): 0.317

###

- condition: in DMF, 293.15 K
measurementLabel: solubility (mole fraction)
One number for each entry.

Record c1ccc(-c2nnn[nH]2)cc1 , field solubility (mole fraction): 0.257

###

- condition: in DMF, 310.65 K
measurementLabel: solubility (mole fraction)
One number for each entry.

Record c1ccc(-c2nnn[nH]2)cc1 , field solubility (mole fraction): 0.35

###

- condition: in toluene, 293.15 K
measurementLabel: solubility (mole fraction)
One number for each entry.

Record c1ccc(-c2nnn[nH]2)cc1 , field solubility (mole fraction): 4.45e-05

###

- condition: in ethyl acetate, 300.65 K
measurementLabel: solubility (mole fraction)
Give bare numbers.

Record c1ccc(-c2nnn[nH]2)cc1 , field solubility (mole fraction): 0.00804

###

- condition: in 2-butanone, 318.15 K
measurementLabel: solubility (mole fraction)
One number for each entry.

Record c1ccc(-c2nnn[nH]2)cc1 , field solubility (mole fraction): 0.0281

###

- condition: in toluene, 290.65 K
measurementLabel: solubility (mole fraction)
Numbers only.

Record c1ccc(-c2nnn[nH]2)cc1 , field solubility (mole fraction): 3.84e-05

###

- condition: in DMF, 288.15 K
measurementLabel: solubility (mole fraction)
One number for each entry.

Record c1ccc(-c2nnn[nH]2)cc1 , field solubility (mole fraction): 0.231

###

- condition: in 1,4-dioxane, 308.15 K
measurementLabel: solubility (mole fraction)
One number for each entry.

Record c1ccc(-c2nnn[nH]2)cc1 , field solubility (mole fraction): 0.0151
